Data origin: ChEMBL document CHEMBL3351801

# MEASUREMENT_TARGET: Nuclear factor NF-kappa-B complex (Homo sapiens) (UniProt Q00653+P19838+Q04206)
# Sequence (P19838 whole entry, looked up): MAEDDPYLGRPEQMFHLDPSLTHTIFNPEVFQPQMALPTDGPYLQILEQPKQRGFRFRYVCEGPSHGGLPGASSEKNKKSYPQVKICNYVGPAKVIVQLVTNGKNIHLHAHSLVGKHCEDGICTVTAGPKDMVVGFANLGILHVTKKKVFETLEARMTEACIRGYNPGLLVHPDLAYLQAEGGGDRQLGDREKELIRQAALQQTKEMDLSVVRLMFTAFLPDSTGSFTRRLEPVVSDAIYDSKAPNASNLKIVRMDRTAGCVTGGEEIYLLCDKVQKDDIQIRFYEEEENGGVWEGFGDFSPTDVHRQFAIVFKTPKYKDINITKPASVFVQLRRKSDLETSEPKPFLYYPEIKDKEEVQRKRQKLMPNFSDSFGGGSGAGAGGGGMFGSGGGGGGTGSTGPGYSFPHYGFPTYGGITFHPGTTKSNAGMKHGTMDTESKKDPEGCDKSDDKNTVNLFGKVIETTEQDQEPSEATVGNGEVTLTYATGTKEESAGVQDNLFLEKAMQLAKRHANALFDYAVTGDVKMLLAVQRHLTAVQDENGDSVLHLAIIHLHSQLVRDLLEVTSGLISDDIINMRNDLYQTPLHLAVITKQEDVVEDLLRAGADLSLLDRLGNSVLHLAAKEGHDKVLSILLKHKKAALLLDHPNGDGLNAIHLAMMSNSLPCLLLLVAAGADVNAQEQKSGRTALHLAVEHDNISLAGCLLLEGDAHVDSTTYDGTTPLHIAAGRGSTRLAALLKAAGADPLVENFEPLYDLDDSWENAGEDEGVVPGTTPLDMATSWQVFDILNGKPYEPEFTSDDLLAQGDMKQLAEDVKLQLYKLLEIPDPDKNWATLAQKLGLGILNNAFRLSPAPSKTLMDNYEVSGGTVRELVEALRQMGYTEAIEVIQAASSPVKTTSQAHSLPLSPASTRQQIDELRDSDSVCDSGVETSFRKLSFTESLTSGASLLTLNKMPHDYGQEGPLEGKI
# Sequence (Q00653 whole entry, looked up): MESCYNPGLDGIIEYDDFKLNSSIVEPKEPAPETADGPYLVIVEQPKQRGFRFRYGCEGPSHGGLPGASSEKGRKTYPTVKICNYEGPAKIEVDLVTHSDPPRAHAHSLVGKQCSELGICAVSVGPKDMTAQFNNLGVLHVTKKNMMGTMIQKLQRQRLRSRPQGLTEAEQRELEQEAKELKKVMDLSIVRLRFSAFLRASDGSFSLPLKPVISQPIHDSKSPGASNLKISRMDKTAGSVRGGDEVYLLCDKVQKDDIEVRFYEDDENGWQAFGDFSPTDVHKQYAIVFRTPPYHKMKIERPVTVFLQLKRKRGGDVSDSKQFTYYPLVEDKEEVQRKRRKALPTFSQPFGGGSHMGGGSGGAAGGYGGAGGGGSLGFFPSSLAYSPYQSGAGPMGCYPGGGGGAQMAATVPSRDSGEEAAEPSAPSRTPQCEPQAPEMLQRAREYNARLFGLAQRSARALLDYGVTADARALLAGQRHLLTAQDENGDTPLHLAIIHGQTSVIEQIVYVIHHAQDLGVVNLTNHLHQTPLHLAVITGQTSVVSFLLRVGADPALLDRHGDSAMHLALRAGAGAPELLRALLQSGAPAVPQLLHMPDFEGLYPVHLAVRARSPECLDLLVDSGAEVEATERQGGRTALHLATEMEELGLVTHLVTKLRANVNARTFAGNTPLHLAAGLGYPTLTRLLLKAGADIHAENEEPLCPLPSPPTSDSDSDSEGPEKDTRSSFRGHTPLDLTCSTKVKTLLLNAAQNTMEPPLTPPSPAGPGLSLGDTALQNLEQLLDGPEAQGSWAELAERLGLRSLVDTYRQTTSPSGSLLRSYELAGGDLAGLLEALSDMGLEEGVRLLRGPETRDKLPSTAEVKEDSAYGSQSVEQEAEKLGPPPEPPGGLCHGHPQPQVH
# Sequence (Q04206 whole entry, looked up): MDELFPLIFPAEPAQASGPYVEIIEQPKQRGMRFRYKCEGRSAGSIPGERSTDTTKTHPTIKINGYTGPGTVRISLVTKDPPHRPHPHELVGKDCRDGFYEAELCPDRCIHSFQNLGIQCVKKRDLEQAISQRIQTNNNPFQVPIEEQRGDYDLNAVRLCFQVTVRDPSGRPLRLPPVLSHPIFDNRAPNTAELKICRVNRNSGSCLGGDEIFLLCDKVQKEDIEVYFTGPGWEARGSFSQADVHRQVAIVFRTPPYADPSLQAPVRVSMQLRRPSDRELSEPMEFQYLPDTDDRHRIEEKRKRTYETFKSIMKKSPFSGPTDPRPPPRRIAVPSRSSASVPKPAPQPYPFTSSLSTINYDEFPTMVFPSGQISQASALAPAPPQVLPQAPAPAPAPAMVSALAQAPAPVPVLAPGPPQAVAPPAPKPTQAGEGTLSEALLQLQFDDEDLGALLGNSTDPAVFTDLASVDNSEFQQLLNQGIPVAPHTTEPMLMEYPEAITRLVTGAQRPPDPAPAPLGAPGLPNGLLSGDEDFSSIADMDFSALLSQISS
# MEASUREMENT_PROTOCOL: Inhibition of LPS-induced NF-kappaB (unknown origin) expressed in HEK293 cells at 10 ug/ml after 4 hrs by luciferase reporter gene assay relative to LPS-treated control
# Assay type: cell-based
VALUE_TYPE: Ratio
// no unit string in output, number only

**Q:** Reported Ratio for "CC/C(O)=C1/C(=O)O[C@@H]2[C@@]3(O)[C@@H](OC(C)=O)[C@@]4(C)C[C@]35OC3(C)O[C@]26[C@H]1[C@](C)([C@@H](OC(C)=O)c1ccoc1)[C@@H](OC(C)=O)[C@@H](OC(C)=O)[C@]6(O3)[C@]5(COC(C)=O)[C@H]4CC(=O)OC" : what is it?
**A:** 0.27

**Q:** Any idea what its Ratio is? The compound is "CCC12C[C@@H]3[C@](C)([C@@H](OC(C)=O)c4ccoc4)[C@@H](OC(C)=O)[C@@H](OC(C)=O)[C@@]4(O)[C@]3(O1)[C@H](O2)[C@@]1(O)[C@@H](OC(C)=O)[C@@]2(C)C[C@@]1(O)[C@@]4(C)[C@H]2CC(=O)OC"
**A:** 0.08
